Here, each record is paired with measured inhibition at 50 µM data.
# Tested on: Plasmodium berghei (Pb-Luc) exoerythrocytic-stage parasites
# PROCEDURE SUMMARY: microbe, parasite or virus in culture
# COND: read-out: Inhibition% @ 50 uM rep2
The reply should contain only the number, in %.

Q) Return reported inhibition at 50 µM; argument: COc1ccc(C(=O)C2CC2c2ccc(Cl)cc2)cc1 (stereo not shown) [MMV665924]
A) 83

Q) For the compound shown here, Cc1c(C)n(CC(O)CNC2CCCCC2C)c2ccccc12 (stereo not shown) [MMV665806] , give the reported inhibition at 50 µM.
A) 92

Q) Any idea what its inhibition at 50 µM is? The compound is CCCCc1ccc(NS(=O)(=O)c2cc3c4c(c2)CCN4C(=O)CC3)cc1 [MMV001255]
A) 92

Q) Report inhibition at 50 µM for CCN(CC)CCNc1ncnc2c1[nH]c1ccc(Br)cc12 [MMV006545] please.
A) 106

Q) Entry CCc1c(C)c(=N)c2ccccc2n1C [MMV006278] : reported inhibition at 50 µM = ?
A) 101

###

# Test system: P. falciparum 3D7 parasites
# PROCEDURE SUMMARY: Asexual erythrocytic-stage SYBR Green I proliferation assay, 1536-well
# Type: cell-based, Plasmodium falciparum
# COND: Plasmodium falciparum, 3D7, read-out: P. falciparum (blood) IC50, Table S1, validation set of 50 antimalarials
Where a name gives a salt, the structure may show the parent alone.
READOUT TYPE: IC50 (nM)
Entry rule: numbers only, all in nM.

CC(C)(N)CNC(=O)C[C@H]1CC[C@]2(CC1)OO[C@]1(O2)C2CC3CC(C2)CC1C3 [OZ277, reference compound] :: 2.3
[H]/N=C(\N/C(=N/[H])Nc1ccc(Cl)cc1)NC(C)C [Proguanil HCL, reference compound] :: 6240

Q) Request - read-out IC50 | tested on P. falciparum 3D7 parasites | compound Clc1ccc2c(N3CCN(CCCN4CCN(c5ccnc6cc(Cl)ccc56)CC4)CC3)ccnc2c1 [Piperaquine, reference compound]
A) 72

Q) Form: Entry = C=C[C@H]1C[N@@]2CC[C@H]1C[C@@H]2[C@@H](O)c1ccnc2ccc(OC)cc12 [Quinidine, reference compound] | System = P. falciparum 3D7 parasites | IC50 = ____
A) 2.9

Q) Identify the measured IC50 of CC[C@H]1OC(=O)[C@H](C)[C@@H](O[C@H]2C[C@@](C)(OC)[C@@H](O)[C@H](C)O2)[C@H](C)[C@@H](O[C@@H]2O[C@H](C)C[C@H](N(C)C)[C@H]2O)[C@](C)(O)C[C@@H](C)CN(C)[C@H](C)[C@@H](O)[C@]1(C)O [Azithromycin, reference compound] for P. falciparum 3D7 parasites.
A) 257

Q) Entry CC1(C)N=C(N)N=C(N)N1c1ccc(Cl)cc1 [Cycloguanil, reference compound] , system P. falciparum 3D7 parasites: what IC50 was measured?
A) 3.1

Q) API: value(readout=IC50, system=P. falciparum 3D7 parasites) for record CCN(CCO)CCCC(C)Nc1ccnc2cc(Cl)ccc12 (centres unmarked) [Hydroxychloroquine, reference compound]
A) 13.9

Q) Please state recorded IC50 (tested on P. falciparum 3D7 parasites) of C[C@H]1[C@H](OC(=O)CCC(=O)O)O[C@@H]2O[C@@]3(C)CC[C@H]4[C@H](C)CC[C@@H]1[C@@]24OO3 [Artesunate, reference compound]
A) 0.9
